method description: logP determination by HPLC on a reversed-phase column (C 18), EEC Directive 79/831 Annex V.A8
Assay type: physicochemical
reported conditions: value marked [a]
measurement type: logP

Solved cases below.
CC(=NOCC(C)CON=C(C)c1cc(Cl)cc(C)n1)c1cc(Cl)cc(C)n1 (centres unmarked) | 7.36^[a]
CC(=NOC[Si](C)(CON=C(C)c1ccc(C)c(C)n1)C(C)C)c1ccc(C)c(C)n1 | 6.76^[a]

# logP (compound: CC(=NOCC(C)CON=C(C)c1cccc(N2CCCC2)n1)c1cccc(N2CCCC2)n1 (centres unmarked) ) is 2.51^[a]

# logP (compound: CCSC(=NOCC(C)CON=C(SCC)c1cccc(C)n1)c1cccc(C)n1 (centres unmarked) ) is 4.35^[a]

# logP (compound: CC(=NOCC(C)CON=C(C)c1cc(C2CC2)cc(C)n1)c1cccc(C)n1 (centres unmarked) ) is 3.21^[a]

# logP (compound: COC(=NOCC(C)CON=C(OC)c1cccc(C)n1)c1cccc(C)n1 (centres unmarked) ) is 1.95^[a]

# logP (compound: `CC(=NOCC(C)(C)CON=C(C)c1cccc(Cc2ccccc2)n1)c1cccc(C)n1` ) is 6.47^[a]

# logP (compound: `CC(=NOCC(C)(C)CON=C(C)c1cccc(Cc2ccccc2)n1)c1cccc(Cc2ccccc2)n1` ) is 7.36^[b][a]

* * *

method description: logP determination by HPLC on a reversed-phase column (C 18), EEC Directive 79/831 Annex V.A8
Assay type: physicochemical
reported conditions: method marked [b] in Table 1
measurement type: logP

Solved cases below.
C=C(CON=C(C)c1nc(OC)cc(OC)n1)CON=C(C)c1nc(OC)cc(OC)n1 | 4.10^[b]
CC(=NOCC(C)CON=C(C)c1ccc(C)c(C)n1)c1cc(C)cc(C)n1 (racemic) | 2.63^[b]

# logP (compound: CCCC(CON=C(C)c1cc(C)cc(C)n1)CON=C(C)c1cc(C)cc(C)n1 (stereo not shown) ) is 3.22^[b]

# logP (compound: `CC(=NOCC1(CON=C(C)c2cc(C)cc(C)n2)CCC1)c1cc(C)cc(C)n1` ) is 2.90^[b]

* * *

method description: logP determination by HPLC on a reversed-phase column (C 18), EEC Directive 79/831 Annex V.A8
Assay type: physicochemical
reported conditions: method marked [b] in Table 1
measurement type: logP

Solved cases below.
CCCC(=NOCC1(CON=C(CCC)c2cccc(C)n2)CC(c2ccccc2Cl)=NO1)c1cccc(C)n1 (stereo not shown) | 6.51^[b]
CC(=NOCc1ccccc1CON=C(C)c1cccc(C)n1)c1cccc(C)n1 | 4.26^[b]
CC(=NOCC1(CON=C(C)c2cccc(C)n2)CC(c2ccccc2Cl)=NO1)c1cccc(C)n1 (stereo not shown) | 4.46^[b]
Cc1cc(C)nc(/C(N)=N/OCc2ccccc2CO/N=C(\N)c2nc(C)cc(C)n2)n1 | 2.23^[b]
CC(=NOCC1(CON=C(C)c2cccc(C)n2)CC(c2ccc(Cl)cc2)=NO1)c1cccc(C)n1 (stereo not shown) | 4.67^[b]
CCCC(=NOCC1(CON=C(CCC)c2cccc(C)n2)CC(C(C)C)=NO1)c1cccc(C)n1 (stereo not shown) | 5.71^[b]

# logP (compound: `CC(=NOCC1(CON=C(C)c2cccc(C)n2)CCCC1)c1cccc(C)n1` ) is 5.49^b]

# logP (compound: CCCC1=NOC(CON=C(CC)c2cccc(C)n2)(CON=C(CC)c2cccc(C)n2)C1 (stereo not shown) ) is 4.72^[b]
